molecular target: HIV-1 Env of ZM197.7 (HIV-1); test: cell-based or functional assay
Readout Kind: neutralization IC50

Go through the items and report each one's neutralization IC50.
1. CAP256-VRC26.06 (antibody, V domains shown) VH: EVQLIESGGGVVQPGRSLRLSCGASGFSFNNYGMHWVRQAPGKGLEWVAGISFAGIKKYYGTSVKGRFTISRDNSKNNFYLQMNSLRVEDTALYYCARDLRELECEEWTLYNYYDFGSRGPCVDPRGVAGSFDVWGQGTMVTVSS VL: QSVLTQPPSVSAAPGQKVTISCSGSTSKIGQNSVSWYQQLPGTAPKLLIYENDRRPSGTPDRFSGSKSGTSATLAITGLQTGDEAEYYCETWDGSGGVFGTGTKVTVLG
2. CAP256-VRC26.01 (antibody, V domains shown) VH: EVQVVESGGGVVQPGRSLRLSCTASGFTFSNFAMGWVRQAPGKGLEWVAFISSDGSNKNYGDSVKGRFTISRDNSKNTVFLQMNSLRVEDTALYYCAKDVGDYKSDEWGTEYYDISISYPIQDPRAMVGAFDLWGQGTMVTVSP VL: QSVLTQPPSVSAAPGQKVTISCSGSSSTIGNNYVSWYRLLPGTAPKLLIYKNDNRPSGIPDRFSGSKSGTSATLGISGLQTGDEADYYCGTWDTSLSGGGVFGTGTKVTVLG
3. CAP256-VRC26.12 (antibody, V domains shown) VH: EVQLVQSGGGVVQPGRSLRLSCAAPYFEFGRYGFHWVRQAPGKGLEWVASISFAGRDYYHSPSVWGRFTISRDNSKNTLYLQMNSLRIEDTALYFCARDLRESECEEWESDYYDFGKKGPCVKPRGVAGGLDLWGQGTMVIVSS VL: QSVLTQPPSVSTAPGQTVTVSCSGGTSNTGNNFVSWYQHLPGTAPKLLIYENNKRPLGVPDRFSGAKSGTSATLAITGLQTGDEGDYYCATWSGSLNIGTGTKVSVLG

> 50 µg/mL
10.4 µg/mL
> 50 µg/mL
